The reported measurements were obtained from ChEMBL document CHEMBL5370686.

- ASSAY PROCEDURE: Clearance in Sprague-Dawley rat plasma at 1 mg/kg, iv administered via bolus by LC-MS/MS analysis
- Assay type: ADME, organism-based
MEASURED ATTRIBUTE: clearance (mL/min/kg)
Record the value in mL/min/kg, omitting the unit from your answer.

Problem: Item `C[C@H]1C[C@@H](N2C(=N)N[C@](C)(c3cccc(-c4ccc(OC(F)(F)F)nc4)c3Cl)CC2=O)CCS1(=O)=O` has what recorded clearance?
Solution: 20

---

- MEASURED ON: Cathepsin D (Homo sapiens)
- Sequence (P07339 65-162 limits assumed): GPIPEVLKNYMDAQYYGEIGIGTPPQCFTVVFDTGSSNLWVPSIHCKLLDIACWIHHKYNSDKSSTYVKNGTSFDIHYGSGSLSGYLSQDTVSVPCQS
- Sequence (P07339 169-412 limits assumed): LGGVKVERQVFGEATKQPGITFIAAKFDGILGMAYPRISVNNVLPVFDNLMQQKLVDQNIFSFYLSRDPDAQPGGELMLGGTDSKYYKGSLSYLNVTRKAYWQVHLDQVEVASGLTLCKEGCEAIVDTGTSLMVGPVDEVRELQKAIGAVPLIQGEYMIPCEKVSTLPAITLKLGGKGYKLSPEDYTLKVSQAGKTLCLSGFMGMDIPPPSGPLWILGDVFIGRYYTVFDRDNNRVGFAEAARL
Quick rule for you: IC50 under 200 nM gets MET, anything else gets NOT MET.

{"SAMPLE SMILES": "C[C@@]1(c2cccc(-c3ccc(F)cc3F)c2Cl)CC(=O)N([C@H]2CCC(F)(F)[C@@H](O)C2)C(=N)N1", "MEASURED ON": "Cathepsin D (Homo sapiens)", "CLASSIFICATION": "NOT MET"}

Problem: Field: below-cutoff. Rule: recorded IC50 strictly less than 200 nM. Subject: `C[C@H]1C[C@@H](N2C(=N)N[C@](C)(c3cccc(-c4ccc5ncn(CC(F)(F)F)c5c4)c3Cl)CC2=O)CCO1`
Solution: MET

Problem: # repeat for `C[C@H]1C[C@@H](N2C(=N)N[C@](C)(c3cccc(-c4cccc(Cl)c4)c3Cl)CC2=O)CCO1`
Solution: MET

Problem: Lookup `C[C@H]1C[C@@H](N2C(=N)N[C@](C)(c3cccc(-c4ccc(OC(F)F)nc4)c3Cl)CC2=O)CCS1(=O)=O`
Solution: NOT MET

Problem: And `C[C@H]1C[C@@H](N2C(=N)N[C@](C)(c3cccc(-c4cncc(Cl)c4)c3Cl)CC2=O)CCO1` ?
Solution: MET

Problem: And what about the molecule `C[C@H]1C[C@@H](N2C(=N)N[C@](C)(c3cccc(-c4ccc(F)cc4F)c3Cl)CC2=O)CCO1` ?
Solution: NOT MET

Problem: Same question for `C[C@H]1C[C@@H](N2C(=N)N[C@](C)(c3cccc(-c4ccccc4Cl)c3Cl)CC2=O)CCO1` please.
Solution: NOT MET

Problem: Next entry: `C[C@@]1(c2cccc(-c3cccc(Cl)c3)c2Cl)CC(=O)N([C@H]2CCOC[C@@H]2O)C(=N)N1`
Solution: NOT MET

---

- ASSAY PROCEDURE: Lipophilicity, log D of the compound in octanol/phosphate buffer at pH 7.4 incubated for 90 mins by shake flask method based LC-MS analysis
- Format: physicochemical
- CONDITION INFO: octanol/phosphate buffer, pH 7.4
MEASURED ATTRIBUTE: logD at 1.5 h
Please state the value as a number alone, without comment.

Problem: What measured logD at 1.5 h goes with `C[C@H]1C[C@@H](N2C(=N)N[C@](C)(c3cccc(-c4ccc5ncn(CC(F)(F)F)c5c4)c3Cl)CC2=O)CCO1` ?
Solution: 2.5

---

- ASSAY PROCEDURE: Solubility of compound in FeSSIF at pH 5.8 incubated for 1 hr by LC/MS analysis
- Format: physicochemical
MEASURED ATTRIBUTE: solubility at 1 h (µM)
Numbers only; they are read as µM.

Solved entries (count: 5):
{"SAMPLE SMILES": "C[C@H]1C[C@@H](N2C(=N)N[C@](C)(c3cccc(-c4ccc5ncn(CC(F)(F)F)c5c4)c3Cl)CC2=O)CCO1", "MEAS VALUE": 378}
{"SAMPLE SMILES": "C[C@@]1(c2cccc(-c3cccc(Cl)c3)c2Cl)CC(=O)N([C@H]2CCOC[C@@H]2O)C(=N)N1", "MEAS VALUE": 1390}
{"SAMPLE SMILES": "C[C@H]1C[C@@H](N2C(=N)N[C@](C)(c3cccc(-c4ccc(OC(F)F)nc4)c3Cl)CC2=O)CCS1(=O)=O", "MEAS VALUE": 1030}
{"SAMPLE SMILES": "C[C@H]1C[C@@H](N2C(=N)N[C@](C)(c3cccc(-c4cccc(Cl)c4)c3Cl)CC2=O)CCO1", "MEAS VALUE": 664}
{"SAMPLE SMILES": "C[C@H]1C[C@@H](N2C(=N)N[C@](C)(c3cccc(-c4ccc(OC(F)(F)F)cc4Cl)c3Cl)CC2=O)CCO1", "MEAS VALUE": 833}

Next item in the queue.
Problem: I have this molecule here, `C[C@H]1C[C@@H](N2C(=N)N[C@](C)(c3cccc(-c4ccc(OC(F)(F)F)nc4)c3Cl)CC2=O)CCS1(=O)=O` , and I need its recorded solubility at 1 h.
Solution: 697
